Assay: Apparent oral clearance in Sprague-Dawley rat at 10 mg/kg, po
Assay type: ADME, organism-based
Set-up: dose 10 mg/kg, route oral
Settings: in vivo
test-readout: CL/F (L/h/kg)
Quick reminder: number only, in L/h/kg, skip the unit.

Exercise: Tell me measured CL/F for "CCN(CC)C(=O)[C@]1(c2ccccc2)C[C@H]1CN" please.
Solution: 17.6

====

Test: Half life in mouse at 5 mg/kg, iv or 30 mg/kg, po
Format: ADME, organism-based
Settings: in vivo
test-readout: half-life (min)
Quick reminder: number only, in min, skip the unit.

Exercise: Tell me measured half-life for "C=CCN(CC=C)C(=O)[C@@]1(c2cccs2)C[C@H]1CN.Cl" please.
Solution: 47.4

====

Assay: AUC in Sprague-Dawley rat at 10 mg/kg, po
Type: ADME, organism-based
Set-up: dose 10 mg/kg, route oral
Conditions: plasma
test-readout: AUC (ng·h/mL)
Quick reminder: number only, in ng·h/mL, skip the unit.

Exercise: Tell me measured AUC for "CCN(CC)C(=O)[C@]1(c2ccccc2)C[C@H]1CN" please.
Solution: 566

====

Catalogue of Vd readings, one per entry.
Test: Volume of distribution in Sprague-Dawley rat at 5 mg/kg, iv
Format: ADME, organism-based
Parameters: dose 5 mg/kg, route intravenous
Details: in vivo
Quick reminder: number only, in L/kg, skip the unit.

# input-smiles, test-readout, value-measured
records = [
    ("C=C(F)CN(CC)C(=O)[C@@]1(c2cccs2)C[C@H]1CN", "Vd", 7.5),
]

Proceed to the following item.
Exercise: Tell me measured Vd for "C=CCN(CC=C)C(=O)[C@@]1(c2cccs2)C[C@H]1CN" please.
Solution: 5.3

====

Assay: AUC in Sprague-Dawley rat at 30 mg/kg, po
Assay type: ADME, organism-based
Set-up: dose 30 mg/kg, route oral
Conditions: plasma
Catalogue of AUC readings, one per entry.
Quick reminder: number only, in ng·h/mL, skip the unit.

# input-smiles, measure-unit, AUC
rows = [
    ("NC[C@@H]1C[C@@]1(C(=O)N1Cc2ccccc2C1)c1cccs1", "ng·h/mL", 272),
]

Exercise: Tell me measured AUC for "C#CCN(CC)C(=O)[C@@]1(c2cccs2)C[C@H]1CN" please.
Solution: 3210

Exercise: Tell me measured AUC for "C=C(F)CN(CC)C(=O)[C@@]1(c2cccs2)C[C@H]1CN" please.
Solution: 1500

Exercise: Tell me measured AUC for "C=CCN(CC=C)C(=O)[C@@]1(c2cccs2)C[C@H]1CN" please.
Solution: 1130

====

Test: Volume of distribution at steady state in mouse at 5 mg/kg, iv or 30 mg/kg, po
Type: ADME, organism-based
Settings: in vivo, read-out: Vdss
test-readout: Vd (L/kg)
Quick reminder: number only, in L/kg, skip the unit.

Exercise: Tell me measured Vd for "C=CCN(CC=C)C(=O)[C@@]1(c2cccs2)C[C@H]1CN.Cl" please.
Solution: 5.4

====

Assay: Drug excretion in human urine
Format: ADME
Details: read-out: Activity
test-readout: dose excreted

Exercise: Tell me measured dose excreted for CCN(CC)C(=O)C1(c2ccccc2)CC1CN (stereo unspecified) please.
Solution: > 80%

====

Catalogue of bioavailability readings, one per entry.
Experiment: Bioavailability in Beagle dog at 5 mg/kg, iv or 30 mg/kg, po
Assay type: ADME, organism-based, Canis lupus familiaris
Settings: in vivo
Quick reminder: number only, in %, skip the unit.

# input-smiles, bioavailability / %
records = [
    ("C=C(F)CN(CC)C(=O)[C@@]1(c2cccs2)C[C@H]1CN.Cl", 109),
]

Proceed to the following item.
Exercise: Tell me measured bioavailability for "C=CCN(CC=C)C(=O)[C@@]1(c2cccs2)C[C@H]1CN.Cl" please.
Solution: 78
